Values from patent US8586591B2

- TARGET: BaF3 cells into which JAK2 V617F gene was introduced (Homo sapiens, UniProt O60674, V617F, cells depend on it)
- Sequence (O60674 whole entry V617F): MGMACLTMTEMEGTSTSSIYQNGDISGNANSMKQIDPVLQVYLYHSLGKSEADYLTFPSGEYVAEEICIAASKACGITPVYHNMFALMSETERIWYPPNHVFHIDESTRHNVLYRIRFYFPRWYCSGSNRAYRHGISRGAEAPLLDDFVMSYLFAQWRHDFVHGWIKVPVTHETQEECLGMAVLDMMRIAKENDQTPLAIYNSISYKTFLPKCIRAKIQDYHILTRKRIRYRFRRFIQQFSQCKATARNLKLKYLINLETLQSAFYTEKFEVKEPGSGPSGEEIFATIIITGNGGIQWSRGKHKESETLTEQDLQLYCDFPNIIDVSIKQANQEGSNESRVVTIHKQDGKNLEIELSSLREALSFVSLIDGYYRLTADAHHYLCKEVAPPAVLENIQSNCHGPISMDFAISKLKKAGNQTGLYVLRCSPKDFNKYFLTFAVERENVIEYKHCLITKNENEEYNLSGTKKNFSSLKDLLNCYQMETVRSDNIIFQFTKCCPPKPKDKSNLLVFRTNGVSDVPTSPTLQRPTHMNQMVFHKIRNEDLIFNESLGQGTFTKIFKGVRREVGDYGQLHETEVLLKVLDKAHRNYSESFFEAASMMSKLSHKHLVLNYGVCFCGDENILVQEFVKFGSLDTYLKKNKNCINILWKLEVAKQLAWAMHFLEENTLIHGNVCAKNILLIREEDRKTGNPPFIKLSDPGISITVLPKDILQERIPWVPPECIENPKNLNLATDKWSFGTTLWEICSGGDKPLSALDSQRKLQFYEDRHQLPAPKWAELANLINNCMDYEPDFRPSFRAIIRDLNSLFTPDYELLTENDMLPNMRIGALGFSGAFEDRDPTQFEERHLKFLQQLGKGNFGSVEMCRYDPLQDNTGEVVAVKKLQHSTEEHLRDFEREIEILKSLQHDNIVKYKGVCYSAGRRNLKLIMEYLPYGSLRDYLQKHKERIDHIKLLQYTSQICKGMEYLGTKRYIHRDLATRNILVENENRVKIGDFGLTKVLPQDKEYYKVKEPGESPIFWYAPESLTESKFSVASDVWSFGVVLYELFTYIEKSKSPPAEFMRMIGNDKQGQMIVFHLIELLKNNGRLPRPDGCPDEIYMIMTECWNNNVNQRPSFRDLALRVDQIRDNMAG
- EXPERIMENTAL_PROTOCOL: Test 2: growth inhibitory action against variant JAK2 expressed cells (MTT method)
- Assay type: cell-based
- MEASUREMENT_CONDITIONS: incubation for 3 days, triplicate, read-out: concentration of the test material which inhibited 50% of the cell growth (IC50)
Counter-ions that a name gives are not always drawn.
Give measured GI50 for each item. Keep answers brief.
Provide the reading as a plain figure in nM.

-- ask Query: GI50; subject: CCCNC(=O)c1cc(Nc2cnccn2)nc(N[C@@H](C)c2ccc(F)cc2)c1 [Example 166]
-- reply 64

-- ask Query: GI50; subject: C[C@H](Nc1nc(Nc2cnccn2)cc(N2CCC(NS(C)(=O)=O)C2)n1)c1ccc(F)cc1 (stereo partly shown) [Example 60, hydrochloride]
-- reply 80

-- ask Query: GI50; subject: C[C@H](Nc1nc(Nc2cnccn2)cc(N2CC(N3CCCC3)C2)n1)c1ccc(F)cc1 [Example 222]
-- reply 66

-- ask Query: GI50; subject: CCS(=O)(=O)NCC1CN(c2cc(Nc3cnccn3)nc(N[C@@H](C)c3ccc(F)cc3)n2)C1 [Example 231]
-- reply 97

-- ask Query: GI50; subject: C[C@H](Nc1nc(Nc2cnccn2)cc(N2CC(O)(C3CC3)C2)n1)c1ccc(F)cc1 [Example 200, hydrochloride]
-- reply 70

-- ask Query: GI50; subject: C[C@H](Nc1nc(Nc2cnccn2)cc(N2CC(N3CCC(O)CC3)C2)n1)c1ccc(F)cc1 [Example 225]
-- reply 64

-- ask Query: GI50; subject: C[C@H](Nc1nc(Nc2cnccn2)cc(N2CCC(C(N)=O)CC2)n1)c1ccc(F)cc1 [Example 56, hydrochloride]
-- reply 81

-- ask Query: GI50; subject: C[C@H](Nc1nc(Nc2cnccn2)cc(N2CC(CO)C2)n1)c1ccc(F)cc1 [Example 228]
-- reply 89

-- ask Query: GI50; subject: C[C@H](Nc1nc(Nc2cnccn2)cc(N2CCOCC2)n1)c1ccc(F)cc1 [Example 20]
-- reply 55

-- ask Query: GI50; subject: CC(C)CNC(=O)c1cc(Nc2cnccn2)nc(N[C@@H](C)c2ccc(F)cc2)c1 [Example 170]
-- reply 77

-- ask Query: GI50; subject: C[C@H](Nc1cc(-c2ccc(O)nc2)cc(Nc2cnccn2)n1)c1ccc(F)cc1 [Example 7, hydrochloride]
-- reply 90

-- ask Query: GI50; subject: C[C@H](Nc1nc(Nc2cnccn2)cc(N2CC(N3CCN(C)CC3)C2)n1)c1ccc(F)cc1 [Example 224]
-- reply 94

-- ask Query: GI50; subject: CC(=O)N[C@@H]1CCN(c2cc(Nc3cnccn3)nc(N[C@@H](C)c3ccc(F)cc3)n2)C1 [Example 27, hydrochloride]
-- reply 89

-- ask Query: GI50; subject: C[C@H](Nc1nc(Nc2cnccn2)cc(N2CCC3(CC2)COC(=O)O3)n1)c1ccc(F)cc1 [Example 112]
-- reply 64

-- ask Query: GI50; subject: C[C@H](Nc1nc(Nc2cnccn2)cc(N2CC(N3CCOCC3)C2)n1)c1ccc(F)cc1 [Example 223]
-- reply 57

-- ask Query: GI50; subject: C[C@H](Nc1nc(Nc2cnccn2)cc(N2CCNC(=O)C2)n1)c1ccc(F)cc1 [Example 1]
-- reply 83
